# ASSAY SYSTEM: TLR8 (Homo sapiens, UniProt Q9NR97)
# Sequence (Q9NR97 27-1041): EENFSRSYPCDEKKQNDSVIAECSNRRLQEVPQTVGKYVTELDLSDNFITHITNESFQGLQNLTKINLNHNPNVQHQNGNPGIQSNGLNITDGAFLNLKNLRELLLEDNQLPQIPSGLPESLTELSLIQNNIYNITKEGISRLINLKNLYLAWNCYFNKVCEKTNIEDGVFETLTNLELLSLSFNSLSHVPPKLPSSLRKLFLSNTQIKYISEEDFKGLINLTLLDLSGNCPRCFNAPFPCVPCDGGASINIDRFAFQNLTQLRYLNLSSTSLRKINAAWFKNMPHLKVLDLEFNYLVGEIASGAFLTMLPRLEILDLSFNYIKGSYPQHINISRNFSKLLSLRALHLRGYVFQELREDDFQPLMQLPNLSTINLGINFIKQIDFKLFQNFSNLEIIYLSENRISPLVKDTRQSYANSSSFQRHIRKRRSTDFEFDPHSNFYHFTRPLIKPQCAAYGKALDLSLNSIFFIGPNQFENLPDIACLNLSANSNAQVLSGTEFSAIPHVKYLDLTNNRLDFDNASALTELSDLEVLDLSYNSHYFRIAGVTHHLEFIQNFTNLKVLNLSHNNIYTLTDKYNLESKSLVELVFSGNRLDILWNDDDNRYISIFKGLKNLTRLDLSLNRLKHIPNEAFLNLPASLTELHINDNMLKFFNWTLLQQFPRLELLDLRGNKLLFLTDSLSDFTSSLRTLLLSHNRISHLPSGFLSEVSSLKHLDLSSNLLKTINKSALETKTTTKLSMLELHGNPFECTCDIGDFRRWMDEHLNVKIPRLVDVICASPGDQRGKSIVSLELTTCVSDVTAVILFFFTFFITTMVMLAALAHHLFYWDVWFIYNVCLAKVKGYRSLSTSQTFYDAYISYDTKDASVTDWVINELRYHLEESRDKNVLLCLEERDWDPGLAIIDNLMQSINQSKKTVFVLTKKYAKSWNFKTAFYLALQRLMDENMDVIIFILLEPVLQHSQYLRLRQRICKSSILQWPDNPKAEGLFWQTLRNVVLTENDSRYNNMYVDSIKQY
# TEST SUMMARY: Inhibition of R848-induced signaling in HEK-Blue hTLR8 cell line (Quanti-Blue)
# CONDITION INFO: R848-induced signaling, HEK-Blue hTLR8 cell line; value ± standard deviation, at least triplicate
ASSAY ENDPOINT: pIC50
Please keep in mind that pIC50 is minus log10 of the molar concentration; only the number is needed.

Examples with answers:
{"COMPOUND": "CSc1nnc(CCCO)n1-c1ccc(Cl)c(Cl)c1Cl [Compound 22]", "pIC50": 6.22}
{"COMPOUND": "OCCCCc1nnc(SCc2c(Cl)cccc2Cl)n1-c1ccc(F)cc1F [Compound 34]", "pIC50": 4.94}
{"COMPOUND": "CSc1nnc(CCCO)n1-c1ccc(F)cc1F [Compound 15]", "pIC50": 5.67}
{"COMPOUND": "CSc1nnc(CCCO)n1-c1ccc(C(F)(F)F)cc1 [Compound 26]", "pIC50": 5.32}

If you can, please state the reported pIC50 value of CSc1nnc(CCCO)n1-c1cccc(Cl)c1Cl [Compound 20] . 6.10

If you can, please state the reported pIC50 value of CSc1nnc(CCCO)n1-c1cc(C)c(C)c(C)c1 [Compound 24] . 7.52

If you can, please state the reported pIC50 value of OCCCc1nnc(SCC2CC2)n1-c1ccc(Cl)cc1Cl [Compound 13] . 5.10

If you can, please state the reported pIC50 value of CCCc1nnc(SC)n1-c1ccc(Cl)cc1Cl [Compound 7] . 6.20

If you can, please state the reported pIC50 value of CSc1nnc(CCCO)n1-c1ccc(Cl)c(Cl)c1 [Compound 19] . 6.72

If you can, please state the reported pIC50 value of CSc1nnc(CCCO)n1-c1cnc2ccccc2c1 [Compound 36] . 6.13

If you can, please state the reported pIC50 value of CSc1nnc(CCCO)n1-c1c(Cl)cc(Cl)cc1Cl [Compound 21] . 5.55

If you can, please state the reported pIC50 value of CSc1nnc(CCCO)n1-c1cc(Cl)c(Cl)c(Cl)c1 [Compound 23] . 6.96

If you can, please state the reported pIC50 value of CSc1nnc(CCCO)n1-c1ccc2ncccc2c1 [Compound 37] . 6.19

If you can, please state the reported pIC50 value of CCSc1nnc(CCCO)n1-c1ccc(Cl)cc1Cl [Compound 11] . 6.41

If you can, please state the reported pIC50 value of CSc1nnc(CCCO)n1-c1ccccc1Cl [Compound 17] . 6.01

If you can, please state the reported pIC50 value of Cc1nnc(SCc2c(Cl)cccc2Cl)n1-c1cccc(F)c1 [Compound 2] . 5.21

If you can, please state the reported pIC50 value of CC(C)Sc1nnc(CCCO)n1-c1ccc(Cl)cc1Cl [Compound 12] . 5.00

If you can, please state the reported pIC50 value of CSc1nnc(CCCO)n1-c1cccc(Cl)c1 [Compound 18] . 6.46

If you can, please state the reported pIC50 value of OCCCc1nnc(SCc2c(Cl)cccc2Cl)n1-c1ccc(F)cc1F [Compound 33] . 5.07

====

# ASSAY SYSTEM: TLR7 (Homo sapiens, UniProt Q9NYK1)
# Construct: host or cells: HEK-Blue hTLR7 (HEK293-derived SEAP reporter cells)
# Sequence (Q9NYK1 27-1049): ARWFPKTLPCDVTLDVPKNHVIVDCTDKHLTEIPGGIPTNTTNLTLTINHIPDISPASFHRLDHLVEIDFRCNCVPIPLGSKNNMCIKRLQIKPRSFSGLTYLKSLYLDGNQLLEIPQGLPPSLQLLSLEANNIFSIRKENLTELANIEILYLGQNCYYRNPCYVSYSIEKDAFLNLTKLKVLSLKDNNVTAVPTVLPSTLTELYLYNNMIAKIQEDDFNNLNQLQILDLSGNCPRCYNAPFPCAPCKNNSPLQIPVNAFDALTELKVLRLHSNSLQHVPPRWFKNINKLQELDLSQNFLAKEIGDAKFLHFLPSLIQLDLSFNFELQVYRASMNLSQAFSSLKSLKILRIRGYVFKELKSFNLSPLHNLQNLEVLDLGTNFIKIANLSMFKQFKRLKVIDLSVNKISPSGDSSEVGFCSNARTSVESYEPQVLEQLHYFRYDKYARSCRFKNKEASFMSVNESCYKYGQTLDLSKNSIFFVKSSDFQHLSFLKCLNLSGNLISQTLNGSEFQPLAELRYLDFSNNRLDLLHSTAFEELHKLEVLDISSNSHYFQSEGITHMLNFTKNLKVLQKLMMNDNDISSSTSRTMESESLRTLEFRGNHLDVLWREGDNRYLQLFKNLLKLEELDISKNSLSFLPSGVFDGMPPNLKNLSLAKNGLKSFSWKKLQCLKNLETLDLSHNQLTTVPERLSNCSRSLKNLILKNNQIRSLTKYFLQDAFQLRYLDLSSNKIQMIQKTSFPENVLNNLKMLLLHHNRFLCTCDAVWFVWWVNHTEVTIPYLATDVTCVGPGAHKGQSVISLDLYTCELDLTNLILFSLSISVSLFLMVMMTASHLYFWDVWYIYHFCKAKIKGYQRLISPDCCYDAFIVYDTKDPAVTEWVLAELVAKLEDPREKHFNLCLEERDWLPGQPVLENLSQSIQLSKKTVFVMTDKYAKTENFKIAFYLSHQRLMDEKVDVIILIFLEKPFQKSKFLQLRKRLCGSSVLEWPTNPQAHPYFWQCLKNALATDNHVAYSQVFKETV
# TEST SUMMARY: Inhibition of R848-induced signaling in HEK-Blue hTLR7 cell line (Quanti-Blue)
# Type: cell-based
ASSAY ENDPOINT: TLR7 (normalized inhibitory effect on R848-induced signaling)
Response field accepts a number only; no unit should be typed.

Examples with answers:
{"SMILES ENTRY": "CCOCc1nc(C#N)c(-c2ccccc2)n1CC(C)(C)O", "ASSAY SYSTEM": "TLR7 (Homo sapiens, UniProt Q9NYK1)", "TEST VALUE": 1.0}
{"SMILES ENTRY": "CCOCc1nc(I)c(-c2ccc3ccccc3c2)n1CC(C)(C)O", "ASSAY SYSTEM": "TLR7 (Homo sapiens, UniProt Q9NYK1)", "TEST VALUE": 0.9}
{"SMILES ENTRY": "CCOCc1ncc(-c2ccccc2)n1CC(C)C", "ASSAY SYSTEM": "TLR7 (Homo sapiens, UniProt Q9NYK1)", "TEST VALUE": 0.6}
{"SMILES ENTRY": "CCOCc1nc(C(N)=O)c(-c2ccccc2)n1CC(C)(C)O", "ASSAY SYSTEM": "TLR7 (Homo sapiens, UniProt Q9NYK1)", "TEST VALUE": 1.0}

What reported TLR7 (normalized inhibitory effect on R848-induced signaling) corresponds to `CCOCc1nc(C)c(-c2ccccc2)n1CC(C)(C)O` on TLR7 (Homo sapiens, UniProt Q9NYK1)? 0.9

What reported TLR7 (normalized inhibitory effect on R848-induced signaling) corresponds to `CCOCc1nc(I)c(-c2ccc(C)cc2)n1CC(C)(C)O` on TLR7 (Homo sapiens, UniProt Q9NYK1)? 0.9

What reported TLR7 (normalized inhibitory effect on R848-induced signaling) corresponds to `CCOCc1nc(-c2ccccc2)c(-c2ccccc2)n1CC(C)(C)O` on TLR7 (Homo sapiens, UniProt Q9NYK1)? 0.8

What reported TLR7 (normalized inhibitory effect on R848-induced signaling) corresponds to `CCOCc1nc(Br)c(-c2ccccc2)n1CC(C)(C)O` on TLR7 (Homo sapiens, UniProt Q9NYK1)? 0.8

What reported TLR7 (normalized inhibitory effect on R848-induced signaling) corresponds to `CCOCc1nc(C(C)C)c(-c2ccccc2)n1CC(C)(C)O` on TLR7 (Homo sapiens, UniProt Q9NYK1)? 0.7

What reported TLR7 (normalized inhibitory effect on R848-induced signaling) corresponds to `CCOCc1nc(COC)c(-c2ccccc2)n1CC(C)(C)O` on TLR7 (Homo sapiens, UniProt Q9NYK1)? 0.9
